- Target System: human SCD5 (Homo sapiens, UniProt Q86SK9)
- Construct: expressed in transfected cells; host or cells: yeast strain with OLE1 deleted, plasmid-borne human SCD5 (selected in SD-Ura)
- Assay Notes: Growth inhibition of yeast strain expressing human SCD5 as sole desaturase (OLE1 deleted), OD600 readout
- Format: cell-based
- Details: yeast strain expressing human SCD5 as sole desaturase; growth (OD600) after 40 h at 30° C.; read-out: SCD5 IC50
- Sequence (Q86SK9 whole entry): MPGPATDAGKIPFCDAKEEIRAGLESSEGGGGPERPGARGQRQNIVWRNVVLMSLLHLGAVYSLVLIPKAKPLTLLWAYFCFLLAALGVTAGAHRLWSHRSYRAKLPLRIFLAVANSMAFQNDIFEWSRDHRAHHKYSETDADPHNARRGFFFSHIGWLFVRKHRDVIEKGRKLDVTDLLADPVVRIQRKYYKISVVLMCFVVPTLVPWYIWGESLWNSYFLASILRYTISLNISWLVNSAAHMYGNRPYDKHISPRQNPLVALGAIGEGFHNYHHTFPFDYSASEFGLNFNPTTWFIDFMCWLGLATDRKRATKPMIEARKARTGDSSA
pIC50: −log10 of the molar value.
The entries below are paired with their reported pIC50.
Endpoint: pIC50

Compound	Endpoint	Comparison Symbol	Readout Number
CN1N=C(C(=O)Nc2ccc(COC3(C)CC3)cn2)CCC1=O [Compound 396]	pIC50	<	4.35
CN1N=C(C(=O)Nc2ccc(Cc3cccc(Br)c3)cn2)CCC1=O [Example 27]	pIC50	=	6.41
Cn1nc(C(=O)Nc2ccc(Cc3ccc(F)c(F)c3Cl)cn2)ccc1=O [Compound 571]	pIC50	=	8.00
Cn1nc(C(=O)NCc2ccc(Cc3cccc(F)c3)cn2)ccc1=O [Compound 411]	pIC50	<	4.35
Cn1nc(C(=O)Nc2ccc(Cc3cc(F)c(F)c(Cl)c3)cn2)ccc1=O [Compound 528]	pIC50	=	8.00
O=C(Nc1ccc(Cc2cccc(Cl)c2)cn1)c1cncc(CO)c1 [Compound 483]	pIC50	=	7.77
COc1cc(Cc2cccc(Cl)c2)cnc1NC(=O)C1=NN(C)C(=O)CC1 [Compound 387]	pIC50	<	4.35
N#Cc1ncc(C(=O)Nc2ccc(Cc3ccc(F)c(F)c3)cn2)cn1 [Compound 525]	pIC50	=	6.26
CN1N=C(NC(=O)c2ccc(Cc3cccc(C(F)F)c3)cn2)CCC1=O [Compound 294]	pIC50	=	6.52

###

- Target System: UniProt Q86SK9
- Assay Notes: Growth inhibition of yeast strain expressing human SCD5 as sole desaturase (OLE1 deleted), OD600 readout
- Assay type: cell-based
- Sequence (Q86SK9 whole entry, looked up): as the sequence (Q86SK9 whole entry) above
The entries below are paired with their reported IC50.
Endpoint: IC50 (µM)

Structure String	Readout Number
CN1N=C(C(=O)Nc2ncc(Cc3ccccc3)s2)CCC1=O	0.19
CN1N=C(C(=O)Nc2ncc(Cc3cccc(Cl)c3)cn2)CCC1=O	20.1

###

- Target System: human SCD5 (Homo sapiens, UniProt Q86SK9)
- Construct: expressed in transfected cells; host or cells: yeast strain with OLE1 deleted, plasmid-borne human SCD5 (selected in SD-Ura)
- Assay Notes: Growth inhibition of yeast strain expressing human SCD5 as sole desaturase (OLE1 deleted), OD600 readout
- Type: cell-based
- Details: SCD5 IC50
pIC50: −log10 of the molar value.
The entries below are paired with their reported pIC50.

Compound	pIC50
O=C(Nc1ccc(Cc2cccc(Cl)c2)cn1)c1ccc(CO)cn1	8.00
CC(C)n1cc(C(=O)Nc2ccc(Cc3cccc(Cl)c3)cn2)ccc1=O	6.38
Cn1cc(C(=O)Nc2ccc(Cc3cccc(C#N)c3)cn2)ccc1=O	6.22
Cn1cc(C(=O)Nc2ncc(Cc3cccc(F)c3)s2)ccc1=O	6.66
Cn1cc(C(=O)Nc2ccc(Cc3cc(F)cc(F)c3)cn2)ccc1=O	8.00
COc1ccc(Cc2ccc(NC(=O)c3ccc(=O)n(C)c3)nc2)cn1	4.45
COc1cc(F)cc(Cc2ccc(NC(=O)c3ccc(=O)n(C)c3)nc2)c1	6.89
COc1ccc(Cc2ccc(NC(=O)c3ccc(=O)n(C)c3)nc2)cc1F	4.67
Cn1cc(C(=O)Nc2ccc(Cc3ccc4c(c3)COC4)cn2)ccc1=O	5.69
Cn1cc(C(=O)Nc2ccc(CC3CCCCC3)cn2)ccc1=O	6.85
COc1cc(Cc2ccc(NC(=O)c3ccc(=O)n(C)c3)nc2)ccc1F	6.24
Cn1cc(C(=O)Nc2ccc(Cc3cc(F)cc(C#N)c3)cn2)ccc1=O	6.28
Cn1cc(C(=O)Nc2ccc(Cc3cc(F)c(F)c(F)c3)cn2)ccc1=O	8.00
Cn1cc(C(=O)Nc2ccc(Cc3cccc(F)c3)cn2)ccc1=O	6.80
Cn1cc(C(=O)Nc2ccc(Cc3ccc(F)cc3)cn2)ccc1=O	8.00
CN1CC(C(=O)Nc2ncc(Cc3cccc(F)c3)s2)CCC1=O (stereo not shown)	4.95
Cn1cc(C(=O)Nc2ccc(Cc3ccc(F)c(F)c3)cn2)ccc1=O	8.00
Cn1cc(C(=O)Nc2ccc(Cc3ccc(F)c(Cl)c3)cn2)ccc1=O	6.19
Cn1cc(C(=O)Nc2ccc(Cc3ccc(Cl)cc3)cn2)ccc1=O	7.22
Cn1cc(C(=O)Nc2ccc(Cc3ccc(C(F)(F)F)cc3)cn2)ccc1=O	6.49
COc1cc(Cl)cc(Cc2ccc(NC(=O)c3ccc(=O)n(C)c3)nc2)c1	7.70
CC(C)n1nc(C(=O)Nc2ccc(Cc3cccc(F)c3)cn2)ccc1=O	6.41
